All values here come from patent US11298363B2.

SYSTEM_UNDER_TEST: human vasopressin V1a receptor (Homo sapiens, UniProt P37288)
Sequence (P37288 whole entry): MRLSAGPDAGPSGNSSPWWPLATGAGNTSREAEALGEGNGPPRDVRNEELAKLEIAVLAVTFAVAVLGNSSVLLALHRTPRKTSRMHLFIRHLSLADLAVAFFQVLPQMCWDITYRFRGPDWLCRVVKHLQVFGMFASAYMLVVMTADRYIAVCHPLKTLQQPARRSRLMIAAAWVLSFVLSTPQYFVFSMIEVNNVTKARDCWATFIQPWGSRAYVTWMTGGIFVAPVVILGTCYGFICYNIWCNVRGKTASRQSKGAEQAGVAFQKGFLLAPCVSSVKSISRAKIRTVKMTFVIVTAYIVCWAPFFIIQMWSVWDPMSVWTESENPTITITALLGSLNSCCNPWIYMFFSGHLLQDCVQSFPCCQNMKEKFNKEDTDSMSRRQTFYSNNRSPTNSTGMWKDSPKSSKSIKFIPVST
MEASUREMENT_PROTOCOL: Human vasopressin V1a receptor binding assay
ASSAY_SETUP: 1321N1 cell membranes, [3H]vasopressin; read-out: Ki (nM) on hV1a cell line
Ki reference
Give the value, in units of nM, as a plain number.

Please review the following examples before continuing.
• Cc1ccc2c(c1)CC(N)Cc1nnc([C@H]3CC[C@H](Oc4ccccn4)CC3)n1-2 (stereo partly drawn) = 7
• CN(Cc1ccc(F)cc1)[C@H]1Cc2cc(Cl)ccc2-n2c(nnc2[C@H]2CC[C@H](Oc3ccccn3)CC2)C1 = 122
• CC1(C(=O)N[C@H]2Cc3cc(Cl)ccc3-n3c(nnc3[C@H]3CC[C@H](Oc4ccccn4)CC3)C2)COC1 = 48
• CCC(C)C(=O)N[C@H]1Cc2cc(Cl)ccc2-n2c(nnc2[C@H]2CC[C@H](Oc3ccccn3)CC2)C1 (stereo partly drawn) = 67

stdin: Field: Ki (human vasopressin V1a receptor (Homo sapiens, UniProt P37288)). Entry: NC1Cc2cc(F)ccc2-n2c(nnc2[C@H]2CC[C@H](Oc3ccccn3)CC2)C1 (stereo partly drawn)
stdout: 12.7

stdin: Observed Ki on human vasopressin V1a receptor (Homo sapiens, UniProt P37288) for CC(C)NC1Cc2cc(Cl)ccc2-n2c(nnc2[C@H]2CC[C@H](C(F)(F)F)CC2)C1 (stereo partly drawn) , please.
stdout: 26

stdin: Find Ki (human vasopressin V1a receptor (Homo sapiens, UniProt P37288)) for the entry COC1Cc2cc(Cl)ccc2-n2c(nnc2[C@H]2CC[C@H](Oc3ccccn3)CC2)C1 (mixture of isomers)
stdout: 0.3

stdin: Item CC(C)N1CC[C@]2(CC[C@H](c3nnc4n3-c3ccc(Cl)cc3CC3(C4)OCCO3)CC2)C1=O with human vasopressin V1a receptor (Homo sapiens, UniProt P37288) - Ki?
stdout: 0.5

stdin: Recall the recorded Ki for OC1Cc2cc(Cl)ccc2-n2c(nnc2[C@H]2CC[C@H](Oc3ccccn3)CC2)C1 (stereo partly drawn) with human vasopressin V1a receptor (Homo sapiens, UniProt P37288) and state it.
stdout: 0.3

stdin: Report Ki for CC(C)(O)C(=O)N[C@@H]1Cc2cc(Cl)ccc2-n2c(nnc2[C@H]2CC[C@H](Oc3ccccn3)CC2)C1 tested on human vasopressin V1a receptor (Homo sapiens, UniProt P37288).
stdout: 0.9

stdin: Value wanted: Ki (human vasopressin V1a receptor (Homo sapiens, UniProt P37288)) of entry N#CCC(=O)OC1Cc2cc(Cl)ccc2-n2c(nnc2[C@H]2CC[C@H](Oc3ccccn3)CC2)C1 (stereo partly drawn)
stdout: 0.2

stdin: Lab request: please report Ki under test system human vasopressin V1a receptor (Homo sapiens, UniProt P37288) for COC1Cc2cc(Cl)ccc2-n2c(nnc2[C@H]2CC[C@H](N3CCCC3=O)CC2)C1 (stereo partly drawn)
stdout: 0.2

stdin: Test system human vasopressin V1a receptor (Homo sapiens, UniProt P37288); read-out Ki; what value for CC(C)NC1Cc2cc(F)ccc2-n2c(nnc2[C@H]2CC[C@H](Oc3ccccn3)CC2)C1 (stereo partly drawn) ?
stdout: 3.2
